Test system: Phakopsora Pachyrhizi
assay overview: Fungicidal activity against Phakopsora pachyrhizi / soybean / leaf disc preventative (Asian soybean rust)
Type: in vivo
experimental context: foliar, 200 ppm in the applied formulation, soybean leaf disks, compared to untreated control leaf disks, read-out: disease control
Procedure: Leaf disks or leaf segments of various plant species are cut from plants grown in a greenhouse. The cut leaf disks or segments are placed in multiwell plates (24-well format) onto water agar. The leaf disks are sprayed with a test solution before (preventative) or after (curative) inoculation. […] Percent disease control relative to the untreated check leaf disks or segments is then calculated. […]
Quick list: pest or weed control at 200 ppm per entry.

- compound: "CCCC(=O)N(CC)Cc1ccc(-c2noc(C(F)(F)F)n2)cc1"
  pest or weed control at 200 ppm: "≥ 80%"
- compound: "CCN(Cc1ccc(-c2noc(C(F)(F)F)n2)cc1)C(=O)C1(C)COC1"
  pest or weed control at 200 ppm: "≥ 80%"
- compound: "CC(C)(C)C(=O)N(Cc1ccc(-c2noc(C(F)(F)F)n2)cc1)C1CC1"
  pest or weed control at 200 ppm: "≥ 80%"
- compound: "O=C(c1ccccc1)N(Cc1ccc(-c2noc(C(F)(F)F)n2)cc1)C1CC1"
  pest or weed control at 200 ppm: "≥ 80%"
- compound: "COCCC(=O)N(Cc1ccc(-c2noc(C(F)(F)F)n2)cc1)CC1CC1"
  pest or weed control at 200 ppm: "≥ 80%"
- compound: "CC(C)C(=O)N(Cc1ccc(-c2noc(C(F)(F)F)n2)cc1)CC(F)(F)F"
  pest or weed control at 200 ppm: "≥ 80%"
- compound: "CCC(C)C(=O)N(Cc1ccc(-c2noc(C(F)(F)F)n2)cc1)OC (centres unmarked)"
  pest or weed control at 200 ppm: "≥ 80%"
- compound: "CCON(Cc1ccc(-c2noc(C(F)(F)F)n2)cc1)C(=O)C1CCC1"
  pest or weed control at 200 ppm: "≥ 80%"
